- TESTED SYSTEM: alpha-2-receptor
- PROCEDURE SUMMARY: Radioligand binding, alpha-2 adrenoceptor, rat cerebral cortices, [^3 H]-rauwolscine
- TEST PARAMETERS: rat cerebral cortices, [^3 H]-rauwolscine
- Method: The compounds were assessed for alpha-adrenergic receptor subtype selectivity by use of radioligand binding techniques as described previously (DeBernardis et.al. J. Med. Chem. 28, 1398 (1985)).
pKi: −log10 of the molar value. Where a name gives a salt, the structure may show the parent alone.

{"MOLECULE": "COc1ccc2c(c1)CCCC2CN1CCC(c2ccccc2)C1 (stereo not shown) [Example 121, hydrochloride]", "TESTED SYSTEM": "alpha-2-receptor", "pKi": 9.00}
{"MOLECULE": "COc1cc2c(cc1F)C(CN(C)CCc1ccco1)CCC2 (stereo not shown)", "TESTED SYSTEM": "alpha-2-receptor", "pKi": 8.32}
{"MOLECULE": "Cc1cc(O)c(O)c2c1C(CN(C)CCc1cccc(F)c1)CCC2 (stereo not shown) [Example 34, hydrobromide]", "TESTED SYSTEM": "alpha-2-receptor", "pKi": 8.59}
{"MOLECULE": "CN(CCc1cccc(F)c1)CC1CCCc2c1ccc1c2OCO1 (stereo not shown)", "TESTED SYSTEM": "alpha-2-receptor", "pKi": 8.35}
{"MOLECULE": "CN(CCc1cccc(F)c1)CC1CCCc2c1ccc1c2OCCO1 (stereo not shown)", "TESTED SYSTEM": "alpha-2-receptor", "pKi": 8.38}
{"MOLECULE": "COc1ccc2c(c1)CCC2CN(C)CCc1cccs1 (stereo not shown) [Example 37, hydrochloride]", "TESTED SYSTEM": "alpha-2-receptor", "pKi": 8.43}
{"MOLECULE": "CN(CCc1cccs1)CC1CCCc2c1ccc(O)c2O (stereo not shown) [Example 87, hydrochloride]", "TESTED SYSTEM": "alpha-2-receptor", "pKi": 8.80}
{"MOLECULE": "CCN(CCc1cccs1)CC1CCCc2cc(OC)ccc21 (stereo not shown) [Example 41, hydrochloride]", "TESTED SYSTEM": "alpha-2-receptor", "pKi": 8.54}
{"MOLECULE": "CN(CCc1cccc(O)c1)CC1CCCc2cc(O)ccc21 (stereo not shown) [Example 82, hydrochloride]", "TESTED SYSTEM": "alpha-2-receptor", "pKi": 8.40}
{"MOLECULE": "Fc1ccccc1C1CCN(CC2CCCc3c2ccc2c3OCO2)C1 (stereo not shown) [Example 176a]", "TESTED SYSTEM": "alpha-2-receptor", "pKi": 9.22}
{"MOLECULE": "CN(CCc1ccccc1)CC1CCCc2ccccc21 (stereo not shown) [Example 88, hydrochloride]", "TESTED SYSTEM": "alpha-2-receptor", "pKi": 8.70}
{"MOLECULE": "COc1ccc2c(c1)CCC2CN1CCC(c2cccs2)C1 (stereo not shown) [Example 151, hydrochloride]", "TESTED SYSTEM": "alpha-2-receptor", "pKi": 8.60}
{"MOLECULE": "COc1ccc2c(c1)CCCC2CN(C)CCc1cccc(O)c1 (stereo not shown) [Example 83, hydrochloride]", "TESTED SYSTEM": "alpha-2-receptor", "pKi": 8.10}
{"MOLECULE": "COc1cc2c(c(OC)c1)C(CN(C)CCc1cccs1)CCC2 (stereo not shown) [Example 26, hydrochloride]", "TESTED SYSTEM": "alpha-2-receptor", "pKi": 9.22}
{"MOLECULE": "CN(C)c1ccc2c(c1)CCCC2CN1CCC(c2ccccc2)C1 (stereo not shown) [Example 188, dihydrochloride]", "TESTED SYSTEM": "alpha-2-receptor", "pKi": 9.30}
{"MOLECULE": "COc1cc2c(cc1C)C(CN(C)CCc1ccco1)CCC2 (stereo not shown) [Example 128, hydrochloride]", "TESTED SYSTEM": "alpha-2-receptor", "pKi": 8.10}
{"MOLECULE": "CN(CCc1cccc(N)c1)CC1CCCc2cc(O)ccc21 (stereo not shown) [Example 68, dihydrobromide]", "TESTED SYSTEM": "alpha-2-receptor", "pKi": 8.22}
{"MOLECULE": "CN(CCc1cccs1)CC1CCCc2c1ccc1c2OCCO1 (stereo not shown) [Example 30, hydrochloride]", "TESTED SYSTEM": "alpha-2-receptor", "pKi": 8.40}
{"MOLECULE": "CCN(CCc1ccco1)CC1CCCc2cc(OC)ccc21 (stereo not shown) [Example 43, hydrochloride]", "TESTED SYSTEM": "alpha-2-receptor", "pKi": 8.22}
{"MOLECULE": "CN(CCc1cccc(F)c1)CC1CCCc2c1ccc(O)c2O (stereo not shown) [Example 85, hydrochloride]", "TESTED SYSTEM": "alpha-2-receptor", "pKi": 8.82}
{"MOLECULE": "Fc1ccc2c(c1)CCCC2CN1CCC(c2cccs2)C1 (stereo not shown)", "TESTED SYSTEM": "alpha-2-receptor", "pKi": 8.31}
{"MOLECULE": "COc1ccc2c(c1)CCCC2CN(C)CCc1cccc(N)c1 (stereo not shown) [Example 67, dihydrochloride]", "TESTED SYSTEM": "alpha-2-receptor", "pKi": 8.22}
{"MOLECULE": "CCN(CCc1cccc(F)c1)CC1CCCc2c1ccc1c2OCO1 (stereo not shown) [Example 165, hydrochloride]", "TESTED SYSTEM": "alpha-2-receptor", "pKi": 8.46}
{"MOLECULE": "CCN(CCc1cccs1)CC1CCCc2c1ccc1c2OCCO1 (stereo not shown) [Example 168, hydrochloride]", "TESTED SYSTEM": "alpha-2-receptor", "pKi": 8.18}
{"MOLECULE": "CN(CCc1ccccc1)CC1CCCc2cc(O)ccc21 (stereo not shown) [11 (HCl salt)]", "TESTED SYSTEM": "alpha-2-receptor", "pKi": 8.77}
{"MOLECULE": "CCOc1ccc2c(c1)CCCC2CN(C)CCc1cccc(N)c1 (stereo not shown) [Example 69, dihydrochloride]", "TESTED SYSTEM": "alpha-2-receptor", "pKi": 7.89}
{"MOLECULE": "COc1ccc2c(c1)CCCC2CN(C)CCc1cccn1C (stereo not shown)", "TESTED SYSTEM": "alpha-2-receptor", "pKi": 8.30}
{"MOLECULE": "COc1ccc(C)c2c1CCCC2CN(C)CCc1cccs1 (stereo not shown) [Example 36, hydrochloride]", "TESTED SYSTEM": "alpha-2-receptor", "pKi": 8.16}
{"MOLECULE": "c1csc(C2CCN(CC3CCCc4c3ccc3c4OCO3)C2)c1 (stereo not shown)", "TESTED SYSTEM": "alpha-2-receptor", "pKi": 8.92}
{"MOLECULE": "Nc1ccc2c(c1)CCCC2CN1CCC(c2ccccc2)C1 (stereo not shown) [Example 156, dihydrochloride]", "TESTED SYSTEM": "alpha-2-receptor", "pKi": 8.22}
{"MOLECULE": "COc1ccc2c(c1)CCCC2CN(C)CCc1cccc(F)c1 (stereo not shown) [Example 6b, hydrochloride]", "TESTED SYSTEM": "alpha-2-receptor", "pKi": 8.30}
